- test-name: small-molecule binders of probe aInhba, primary screen, biochemical, small-molecule microarray, 635/667 nm fluorescence (AID 1148);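 note: score merges 667nm spot fluorescence with signal-to-noise for antibody binding to printed compounds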
- measurement-conditions: higher = more signal
Recorded measurements of composite z-score, one per entry
In your answer, state the number alone without any accompanying words.

For the molecule shown here, COC(=O)[C@H](C)NC(=O)CCC1CC(OC(=O)NCc2cccc3ccccc23)CC2(CCCC(COC(=O)NCCOc3ccccc3)O2)O1 (some centres undefined) , give the reported composite z-score.
-0.025

---

- test-name: modulators of S6 phosphorylation in cells, primary screen, cell-based, A549, cytoblot, luminescence, serum-stimulated (AID 1158);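 note: serum-stimulated A549 lung adenocarcinoma cells; signal is phosphorylated S6 detected by cytoblot immunostaining with HRP secondary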
- measurement-conditions: A549 phospho-S6 cytoblot, 5 h, higher = more signal
observable: z-score
In your answer, state the number alone without any accompanying words.

// below: answered compounds
COc1ccc(OC[C@@H]2CC3[C@@H](c4ccc(Br)cc4)[C@H](C)CC[C@H]3C(=O)O2)cc1 (some centres not stated); 0.338
CCOC(=O)CCN1C(=O)[C@H]2[C@H]3[C@H](O)[C@H](O)CC(=NNC(=O)OCC)[C@H]3CC[C@H]2C1=O; -0.242
CCc1cc2c(nc1CC)CCN(CCC(C)=NOC[C@@H](C)[C@H](OCc1ccccc1)C(C)C)C2; 1.35
CC(=O)OC[C@H]1O[C@@H](ON=C(C)CCC(=O)OC[C@H]2O[C@H](C#Cc3ccccc3)C=C[C@@H]2Oc2ccc(C)cc2)[C@H](OC(C)=O)[C@@H](OC(C)=O)[C@@H]1OC(C)=O; -0.635
C[C@@H](c1ccccc1)N1C(=O)[C@H]2[C@H]3[C@H](O)[C@H](O)CC(=NNC(=O)OCc4ccccc4)[C@@H]3CC[C@H]2C1=O; -0.136

For the compound shown here, `CC(C)CON=C1[C@H]2CCn3c(=O)n(C)c(=O)n3[C@H]2[C@H](O)[C@@H]2O[C@H]12` , give the reported z-score.
-0.445

For the compound shown here, `COC(=O)[C@@H]1CC[C@H](C)[C@@H](c2ccc(Br)cc2)N1C(=O)C(F)(F)F` , give the reported z-score.
-0.56

---

- test-name: anti-His antibody binders, primary screen, artefact control for SMM control protein annotation, biochemical, small-molecule microarray, 635 nm fluorescence (AID 1128);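 note: score merges feature fluorescence with signal-to-noise for each printed compound spot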
- measurement-conditions: anti-His Alexa647 antibody binding, higher = more signal
Recorded measurements of composite z-score, one per entry
In your answer, state the number alone without any accompanying words.

// below: answered compounds
CO[C@H]1COC(=O)[C@H](C)COC(=O)[C@@H](OCc2ccccc2)C=C[C@@H]1C; -0.49
COc1ccc(COC(=O)NN=C2C[C@@H](O)[C@@H](O)[C@@H]3[C@@H]4C(=O)N(Cc5ccccc5)C(=O)[C@@H]4CC[C@@H]23)cc1; 0.57
C[C@H]1CC[C@@H](C(=O)O)N[C@@H]1c1cccc(N2CCCC2=O)c1; -0.0817
COc1cccc([C@H]2Oc3ccc(OC)cc3C(=NOCC[C@@H]3C=C[C@H](OC(C)=O)[C@@H](COC(C)=O)O3)[C@@H]2O)c1; -0.972
CCOC(=O)[C@H](CC(C)C)NC(=O)CCC1CC(OC(=O)NCc2ccc3c(c2)OCO3)CC2(CCCC(COC(=O)NCCOc3ccccc3)O2)O1 (stereo partly drawn); 0.424

For the compound shown here, `CC(C)CON=C1[C@H]2CCn3c(=O)n(C)c(=O)n3[C@H]2[C@H](O)[C@@H]2O[C@H]12` , give the reported composite z-score.
0.457

For the compound shown here, `COc1ccc(COC(=O)NN=C2C[C@@H](O)[C@@H](O)[C@@H]3[C@@H]4C(=O)N(C(C)(C)C)C(=O)[C@@H]4CC[C@@H]23)cc1` , give the reported composite z-score.
0.839

For the compound shown here, `CCN1C(=O)[C@H]2[C@@H]3C(=CC[C@H]2C1=O)C(=O)[C@H]1O[C@H]1[C@H]3O` , give the reported composite z-score.
1.21
